The values you see were collected from PubChem BioAssay (NCI).

# Tested on: CCRF-CEM leukemia
# PROTOCOL NOTES: NCI-60 one-dose screen, 48 h (100 = growth as untreated, 0 = no growth, -100 = all killed)
# RECORDED CONDITIONS: 10 µM unless noted
This is part of a sample that, as a whole, favours compounds with a hit. Of some 83,000 tested, about 20% had one in any assay.
The reader will find reported growth values listed item by item below.
Please reply with the bare figure in % and do not write the unit itself.

Example molecules with recorded growth:
molecule=CC(=O)Nc1ccccc1-c1n[nH]c(=O)[nH]c1=O result=105
molecule=COc1cc2nc(N3CCC[C@H](NC4=CC(=O)c5ccccc5C4=O)C3)nc(N)c2cc1OC result=-23.5
molecule="CC(C)(C)[Si](C)(C)OC1[C@@H](CNC(=O)NC(=O)CCl)O[C@@H](n2cnc3c(N)ncnc32)[C@H]1O[Si](C)(C)C(C)(C)C (stereo not given in full)" result=-46.5
molecule="COc1ccc(/C=N/OCC(O)CNCc2ccccc2)cc1OC1CCCC1 (stereo not given)" result=113
molecule=COc1ccc(/C=C(\C#N)c2ccc(OC)cc2)cc1 result=55.6
molecule=Cn1c2c(cc(S(=O)(=O)c3ccccc3)c1=O)CCc1c-2cnn1-c1cccc(Cl)c1 result=90.9
molecule=Oc1ccc(Cl)cc1CNc1nc2ccccc2[nH]1 result=-21.4
molecule=Clc1ccc2c(N3CCN(c4ccnc(NC5CCCCC5)n4)CC3)ccnc2c1 result=8.39
molecule="C=C(C)COC(=O)c1ccccc1C(=O)OCC1(C)CO1 (stereo not given)" result=97.2
molecule=O=C1C(Br)=C(c2ccccc2)C(=O)C(Br)=C1c1ccccc1 result=31.9

Reported growth for Cn1c2c(cc(S(=O)(=O)c3ccccc3)c1=O)CCc1c-2cnn1-c1ccccc1Cl was 96.4

COc1cc(-c2nc(SC(C)C)nc(Nc3ccccc3C)c2C#N)cc(OC)c1OC yielded growth of 103

Measured growth, CCOC(=O)C1=C(C)N2C(=NC3=C(CCCC/C3=C\c3ccccc3)C2c2ccccc2)S1 (stereo not given) : 98.3

Measured growth, COc1cccc(OC)c1OC(=O)c1ccccc1 : 92.7

----------
# Test system: NCI-H522 lung
# PROTOCOL NOTES: NCI-60 one-dose screen, 48 h (100 = growth as untreated, 0 = no growth, -100 = all killed)
# RECORDED CONDITIONS: 10 µM
About 83,000 compounds went through this panel and 20% of them were active in at least one assay; those are over-represented in the sample as a whole.
Criterion: growth strictly less than 70%. Met: Criterion met. Not met: Criterion not met.

Record excerpt, results attached:
molecule=Cn1c(=O)c2c(-c3ccccc3F)n(-c3ccc4c(c3)OCO4)cc2n(C)c1=O measured_on="NCI-H522 lung" qualitative_label="Criterion not met"
molecule=Cc1nc2nc(C(F)(F)F)[nH]c2nc1C measured_on="NCI-H522 lung" qualitative_label="Criterion not met"
molecule=O=c1c2cc(F)ccc2oc2c(NCCNCCO)nc3ccccc3c12 measured_on="NCI-H522 lung" qualitative_label="Criterion met"
molecule=COc1cc(CNCCN2C(=O)c3ccc4c5c(ccc(c35)C2=O)C(=O)N(CCNCc2cc(OC)c(OC)c(OC)c2)C4=O)cc(OC)c1OC measured_on="NCI-H522 lung" qualitative_label="Criterion met"
molecule=FC(F)(F)Oc1ccc2c(c1)C[C@H]1C[C@@H](c3ccoc3)N2O1 measured_on="NCI-H522 lung" qualitative_label="Criterion not met"

*Q* Quick check: growth of CCCCC(O)Cn1ncc(C(=O)OCC)c1NC(=O)NCc1ccccc1C(F)(F)F (configuration not stated) under 70%?
*A* Criterion not met

*Q* Criterion: growth strictly below 70%. Is it met by CCOC(=O)c1[nH]c2cc(Cl)ccc2c1[C@@H](C(=O)NC(C)(C)C)N(CC)C(=O)CCCCC#Cc1cccc2c1CN(C1CCC(=O)NC1=O)C2=O (some centres not stated) ?
*A* Criterion met

----------
Recorded growth for the following compounds
# Tested on: UACC-257 melanoma
# PROTOCOL NOTES: NCI-60 one-dose screen, 48 h (100 = growth as untreated, 0 = no growth, -100 = all killed)
# RECORDED CONDITIONS: 10 µM unless noted
# Procedure: Cells are grown in 96 well plates and exposed to the test compound for 48 hours. Compounds are tested at a single concentration, which is 10^-5 M for most compounds. The reported endpoint is percent growth (GI% or GIPRCNT), where numbers from 0 - 100% represent growth inhibition, and numbers from -100% - 0 represent cell death. For example, a value of 40 represents 60% growth inhibition. A value of 0 means no net growth occurred over the course of the experiment. […]
The panel holds about 83,000 compounds, 20% with a hit somewhere; the sample as a whole holds those more often.
Reply with just the number (in %).

Example results:
compound=COc1cc(C(=O)N(C(C)C)C2CCCCC2)cc(OC)c1OC measured_on="UACC-257 melanoma" measured_metric=growth result=93.7
compound="COc1ccc(C2SC(C)C(=O)N2CCc2cccs2)cc1OC (stereo not drawn)" measured_on="UACC-257 melanoma" measured_metric=growth result=75.7

API: the following record is the query input.
Quick note, growth for O=C(NCc1ccco1)C1CCN(S(=O)(=O)c2ccc(Cl)cc2)CC1 landed at 86.5

----------
# Tested on: SNB-19 CNS
# PROTOCOL NOTES: NCI-60 one-dose screen, 48 h (100 = growth as untreated, 0 = no growth, -100 = all killed)
# RECORDED CONDITIONS: 10 µM unless noted
# Procedure: Growth inhibition of the SNB-19 human tumor cell line is measured as a screen for anti-cancer activity. Cells are grown in 96 well plates and exposed to the test compound for 48 hours. Compounds are tested at a single concentration, which is 10^-5 M for most compounds. The reported endpoint is percent growth (GI% or GIPRCNT), where numbers from 0 - 100% represent growth inhibition, and numbers from -100% - 0 represent cell death. For example, a value of 40 represents 60% growth inhibition. […]
About 83,000 compounds went through this panel and 20% of them were active in at least one assay; those are over-represented in the sample as a whole. Active and inactive are the calls of the source. The calls were made as follows: active = growth percent below 10; inactive = the rest.
As shown below, each of these compounds has a reported growth value.

Reference set, count: 3
molecular_string=CN1CCc2c(c3ccccc3c3ccccc23)C1 result="66.2% (inactive)"
molecular_string=COc1ccc(/C=C2\SC(=O)N(CN3CCN(c4cc5c(cc4F)c(=O)c(C(=O)O)cn5C4CC4)CC3)C2=O)cc1 result="100% (inactive)"
molecular_string=C=C1CC[C@@H]2[C@@](C)(CCC[C@]2(C)C(=O)O)[C@@H]1CC[C@H](CO)CCO result="101% (inactive)"

Record CC(=O)OC[C@H](O)[C@@]1(O)CC[C@H]2[C@@H]3CCC4=CC(=O)CC[C@]4(C)[C@H]3[C@@H](O)C[C@@]21C , field growth: 109% (inactive)

So, FC(F)(F)c1cc(CNc2nc(Cl)ncc2Br)cc(C(F)(F)F)c1 ? Its growth was 107% (inactive)

----------
# Test system: RPMI-8226 leukemia
# PROTOCOL NOTES: NCI-60 one-dose screen, 48 h (100 = growth as untreated, 0 = no growth, -100 = all killed)
# RECORDED CONDITIONS: 10 µM
This is part of a sample that, as a whole, favours compounds with a hit. Of some 83,000 tested, about 20% had one in any assay.
So basically, the class depends on measured growth, and the ranges are class A = under 20%, class B = from 20% up to 80%, class C = 80% and over

Previously resolved entries follow.
molecule=COc1nc2c(cc1S(=O)(=O)c1ccccc1)CCc1c-2cnn1-c1ccccc1 qualitative_label="class B"
molecule="O=C(c1ccccc1)C(Br)C(Br)c1cccc([N+](=O)[O-])c1 (centres undefined)" qualitative_label="class A"

*Q* Determine which band this molecule sits in: CCCCC(=O)N/N=C/c1cc(I)cc(I)c1O
*A* class B

*Q* Please indicate the class for Cc1ccc(C(=O)Nc2ccccc2N)cc1 based on its growth.
*A* class A

*Q* Using the reported growth, which band applies to O=C1/C(=C/c2ccc(F)cc2)CN(Cc2cn(CCNc3ccnc4cc(Cl)ccc34)nn2)C/C1=C\c1ccc(F)cc1 ?
*A* class A

*Q* The entry to classify is Cc1ccc(S(=O)(=O)N2CCc3ccc(O)c4c3C2Cc2cc(Cl)ccc2-4)cc1 (centres undefined) ; which class holds it?
*A* class C

*Q* Textbook exercise: identify the category of the molecule given here, CCN1CCN(c2nc3ccccc3c3c(=O)c4cc(F)ccc4sc23)CC1 , according to its measured value.
*A* class B

*Q* Class? Entry: Nc1nc(N)c(C=Nc2ccc(Br)cc2)c(Nc2ccc(Br)cc2)n1
*A* class C

*Q* Any idea which band COc1ccc(/C=N\N2CCOCC2)cc1OC1CCCC1 is in?
*A* class C

*Q* Categorize the following entry: CCN(c1ccc(C(=O)N2CCN(c3ccccc3)CC2)cc1)S(C)(=O)=O
*A* class C

*Q* # bin lookup: classify Cc1nc(NN)c([N+](=O)[O-])c(NN)n1 by its growth
*A* class C

*Q* Which class is correct for the following molecule? COc1ccc(-c2csc3c2-n2cccc2C3=O)cc1O
*A* class A

*Q* Kindly identify the class of Cc1nc2cc(Nc3nc(Nc4ccc(F)cc4)nc(-c4ccc(Cl)cc4)n3)ccc2n1Cc1ccccc1 .
*A* class A
